# system_name: αLβ2/ICAM-1 (Homo sapiens, UniProt P05107+P20701)
# Construct: The Jurkat (VCAM-1 assays) and HSB (ICAM-1 assays) cell lines were obtained from American Type Culture Collection; endogenous in cells; host or cells: HSB (ATCC)
# Sequence (P20701 26-1170): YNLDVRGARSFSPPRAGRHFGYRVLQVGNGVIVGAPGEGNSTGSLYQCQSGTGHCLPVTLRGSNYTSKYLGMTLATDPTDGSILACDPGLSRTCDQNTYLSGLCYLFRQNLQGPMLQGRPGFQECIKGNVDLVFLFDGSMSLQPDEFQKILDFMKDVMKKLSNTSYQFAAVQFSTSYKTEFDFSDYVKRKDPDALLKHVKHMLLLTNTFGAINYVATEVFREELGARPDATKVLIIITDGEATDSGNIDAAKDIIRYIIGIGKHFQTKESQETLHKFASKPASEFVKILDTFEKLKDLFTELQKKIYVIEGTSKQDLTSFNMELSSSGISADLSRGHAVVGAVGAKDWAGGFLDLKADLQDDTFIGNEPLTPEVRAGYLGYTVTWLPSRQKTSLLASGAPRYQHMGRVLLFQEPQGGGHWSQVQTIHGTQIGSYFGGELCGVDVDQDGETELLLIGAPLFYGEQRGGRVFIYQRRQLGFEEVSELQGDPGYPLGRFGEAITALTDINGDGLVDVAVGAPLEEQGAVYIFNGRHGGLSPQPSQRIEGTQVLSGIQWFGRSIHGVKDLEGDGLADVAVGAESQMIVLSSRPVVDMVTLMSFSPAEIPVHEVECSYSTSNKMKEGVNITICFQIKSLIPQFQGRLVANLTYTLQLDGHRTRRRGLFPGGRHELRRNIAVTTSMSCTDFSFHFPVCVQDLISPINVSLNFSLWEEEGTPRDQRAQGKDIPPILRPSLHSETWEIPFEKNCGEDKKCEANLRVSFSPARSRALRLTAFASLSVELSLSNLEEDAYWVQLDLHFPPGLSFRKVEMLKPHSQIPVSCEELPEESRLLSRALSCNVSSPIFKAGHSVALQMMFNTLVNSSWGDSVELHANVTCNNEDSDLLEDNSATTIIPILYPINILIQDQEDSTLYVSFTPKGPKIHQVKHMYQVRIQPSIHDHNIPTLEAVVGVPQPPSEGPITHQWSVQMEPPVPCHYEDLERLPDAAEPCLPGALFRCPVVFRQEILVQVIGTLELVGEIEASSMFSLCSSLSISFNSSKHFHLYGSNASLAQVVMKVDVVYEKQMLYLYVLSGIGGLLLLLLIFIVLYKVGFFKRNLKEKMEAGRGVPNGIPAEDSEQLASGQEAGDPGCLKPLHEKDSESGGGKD
# Sequence (P05107 23-769): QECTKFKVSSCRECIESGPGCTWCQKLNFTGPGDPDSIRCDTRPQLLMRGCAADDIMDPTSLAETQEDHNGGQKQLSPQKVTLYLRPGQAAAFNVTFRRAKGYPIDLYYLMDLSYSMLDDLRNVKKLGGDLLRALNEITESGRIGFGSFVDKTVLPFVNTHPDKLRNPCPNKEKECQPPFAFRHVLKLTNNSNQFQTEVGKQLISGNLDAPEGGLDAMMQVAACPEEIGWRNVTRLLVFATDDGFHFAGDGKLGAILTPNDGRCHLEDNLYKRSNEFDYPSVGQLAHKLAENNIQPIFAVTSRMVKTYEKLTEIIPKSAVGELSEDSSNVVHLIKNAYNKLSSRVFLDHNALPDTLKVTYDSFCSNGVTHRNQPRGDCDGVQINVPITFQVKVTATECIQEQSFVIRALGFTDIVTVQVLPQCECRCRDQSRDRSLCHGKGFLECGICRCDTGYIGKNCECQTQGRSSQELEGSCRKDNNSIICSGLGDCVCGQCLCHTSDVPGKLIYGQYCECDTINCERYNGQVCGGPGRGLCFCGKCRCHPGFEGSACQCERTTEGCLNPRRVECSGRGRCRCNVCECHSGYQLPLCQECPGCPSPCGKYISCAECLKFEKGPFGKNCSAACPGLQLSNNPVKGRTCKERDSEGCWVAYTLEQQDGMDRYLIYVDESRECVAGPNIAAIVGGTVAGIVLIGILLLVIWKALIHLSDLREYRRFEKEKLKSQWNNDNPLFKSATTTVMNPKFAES
# procedure_text: Static cell adhesion assay, HSB cells on ICAM-1 (LFA-1; LAD)
# Format: cell-based
# condition_context: RFU of compound / RFU of THI0349, both at the same concentration
Label Not fulfilled if LAD Raw Fluorescence Units against LFA-1; Dose 3 µM; Ratio of raw counts Compound/THI0349 falls below 1; label Fulfilled in every other case.

Dear colleague, could you confirm whether COc1cccc(CN(Cc2cccc(OC)c2)c2nc(COCCOCCOc3cccc(OC)c3)cs2)c1 [Compound 42] has LAD Raw Fluorescence Units against LFA-1; Dose 3 µM; Ratio of raw counts Compound/THI0349 at or above 1?
Fulfilled

Is LAD Raw Fluorescence Units against LFA-1; Dose 3 µM; Ratio of raw counts Compound/THI0349 for COCCOc1cccc(CN(Cc2cccc(OCCOC)c2)c2nc(C)cs2)c1 [Compound 30] at or above 1?
Fulfilled

Could you verify whether the entry OCc1coc(N(Cc2cccs2)Cc2cccs2)n1 [Compound 25] shows LAD Raw Fluorescence Units against LFA-1; Dose 3 µM; Ratio of raw counts Compound/THI0349 of no less than 1?
Not fulfilled

Check if LAD Raw Fluorescence Units against LFA-1; Dose 3 µM; Ratio of raw counts Compound/THI0349 >= 1 (inclusive). Item: CCOC(=O)c1csc(N(Cc2ccc(-n3ccnc3)cc2)Cc2cccc(OC)c2)n1 [Compound 113]
Not fulfilled

Given COc1ccc(CCOCc2csc(N(Cc3cccc(OC)c3)Cc3cccc(OC)c3)n2)cc1 [Compound 40] , state whether its LAD Raw Fluorescence Units against LFA-1; Dose 3 µM; Ratio of raw counts Compound/THI0349 is at least 1.
Not fulfilled

Answer whether LAD Raw Fluorescence Units against LFA-1; Dose 3 µM; Ratio of raw counts Compound/THI0349 of COc1cccc(COCc2csc(N(Cc3cccc(OC)c3)Cc3cccc(OC)c3)n2)c1 [Compound 38] is greater than or equal to 1.
Not fulfilled

State whether the measured LAD Raw Fluorescence Units against LFA-1; Dose 3 µM; Ratio of raw counts Compound/THI0349 reaches 1, counting equality as reaching it, for COc1cccc(CN(Cc2cccc(OC)c2)c2nc(COCCOCCOc3cccc(N(C)C)c3)cs2)c1 [Compound 41]
Fulfilled
